Entries and their Bliss excess
tested on: AU565 (Breast Carcinoma); test: Bliss excess, mean over the matrix (fraction); higher = more synergy;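 note: after 72 h of two-drug dosing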

# compound, Bliss excess
records = [
    ("Cc1cc2ncnn2cc1Nc1ncc2c(n1)n(C1CCOCC1)c(=O)n2C [AZD7648] + CCN(CCO)CCCOc1ccc2c(Nc3cc(CC(=O)Nc4cccc(F)c4)[nH]n3)ncnc2c1 [AZD2811] (first compound max 10 µM, 7x7, partner max 1 µM)", 0.0433),
    ("CN(CCO)CC[C@H](CSc1ccccc1)Nc1ccc(S(=O)(=O)NC(=O)c2ccc(N3CCC([C@@H](O)c4ccccc4-c4ccc(Cl)cc4)CC3)cc2)cc1S(=O)(=O)C(F)(F)F [AZD4320] + CN(C)CCCOc1ccc(-c2ccc3ncc4c(c3c2)n(C2CCOCC2)c(=O)n4C)cn1 [AZD0156] (first compound max 1 µM, 7x7, partner max 1 µM)", 0.0203),
    ("C=CCn1c(=O)c2cnc(Nc3ccc(N4CCN(C)CC4)cc3)nc2n1-c1cccc(C(C)(C)O)n1 [AZD1775] + C[C@@H]1COCCN1C2=NC(=NC(=C2)C3(CC3)[S@](=N)(=O)C)C4=C5C=CNC5=NC=C4 [AZD6738] (first compound max 1 µM, partner max 10 µM)", -0.0083),
    ("CN(CCO)CC[C@H](CSc1ccccc1)Nc1ccc(S(=O)(=O)NC(=O)c2ccc(N3CCC([C@@H](O)c4ccccc4-c4ccc(Cl)cc4)CC3)cc2)cc1S(=O)(=O)C(F)(F)F [AZD4320] + C=CCn1c(=O)c2cnc(Nc3ccc(N4CCN(C)CC4)cc3)nc2n1-c1cccc(C(C)(C)O)n1 [AZD1775] (first compound max 1 µM, partner max 1 µM)", 0.0571),
    ("CC1(C)CCC(CN2CCN(c3ccc(C(=O)NS(=O)(=O)c4ccc(NCC5CCOCC5)c([N+](=O)[O-])c4)c(Oc4cnc5[nH]ccc5c4)c3)CC2)=C(c2ccc(Cl)cc2)C1 [Venetoclax] + C1CN(CCC1(C(=O)N[C@@H](CCO)C2=CC=C(C=C2)Cl)N)C3=NC=NC4=C3C=CN4 [Capivasertib] (first compound max 1 µM, 7x7, partner max 3 µM)", 0.0463),
    ("CC1(C)CCC(CN2CCN(c3ccc(C(=O)NS(=O)(=O)c4ccc(NCC5CCOCC5)c([N+](=O)[O-])c4)c(Oc4cnc5[nH]ccc5c4)c3)CC2)=C(c2ccc(Cl)cc2)C1 [Venetoclax] + Cn1cnc2c(F)c(Nc3ccc(Br)cc3Cl)c(C(=O)NOCCO)cc21 [Selumetinib] (first compound max 1 µM, 7x7, partner max 3 µM)", 0.0147),
    ("COc1nnc2ccc(N3CCC(c4ccc(OCCN5CCN(C)C(=O)[C@H]5C)cc4)CC3)nn12 [AZD5153] + C[C@@H]1COCCN1C2=NC(=NC(=C2)C3(CC3)[S@](=N)(=O)C)C4=C5C=CNC5=NC=C4 [AZD6738] (first compound max 1 µM, 7x7, partner max 10 µM)", 0.009),
]

Measured values drawn from the supplement of paper PMC11061612 for this set.
